B1: library; numbered along this chain (parent)
chain: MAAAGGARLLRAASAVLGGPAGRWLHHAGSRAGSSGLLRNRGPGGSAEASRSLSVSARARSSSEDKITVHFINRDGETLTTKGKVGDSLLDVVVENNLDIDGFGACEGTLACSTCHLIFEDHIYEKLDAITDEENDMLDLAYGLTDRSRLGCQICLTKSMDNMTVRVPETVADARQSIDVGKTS

- Variants of: B1
- Procedure Text: scaled log2 fold change in cell abundance, elesclomol vs control (0 = silent mean, 1 = nonsense mean) (scaled log2 ratio); higher = higher viability under elesclomol (loss of FDX1 cuproptosis function);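 further: variant abundance is its share of total variant reads in each endpoint sample, from next-generation sequencing of the integrated ORF PCR-amplified out of genomic DNA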
- Test Context: with HEK293T FDX1 KO; elesclomol 40 nM; glucose 10 mM; 11 days
Catalogue of scaled log2 fold change readings, one per entry.

# Variant Id, scaled log2 fold change
rows = [
    ("T78F", -0.765),
    ("H116Q", 0.198),
    ("R74G", -0.839),
    ("T81D", -0.616),
    ("S63V", 0.0727),
    ("A32R", 1.44),
    ("S148T", 0.124),
    ("T81C", -0.28),
    ("R166P", 1.77),
    ("L98C", -0.505),
    ("G86H", 0.453),
    ("R58A", 0.434),
    ("S54G", -0.00382),
    ("A32Y", 0.822),
    ("V85E", -0.248),
    ("C152D", 1.19),
    ("N73D", -0.23),
    ("H116L", -0.291),
    ("S34T", -0.0688),
    ("R23P", 0.465),
    ("N40S", 0.0876),
    ("T68L", 0.885),
    ("Q176R", 0.492),
    ("F103W", -1.07),
    ("A15L", -0.301),
    ("D65R", -0.257),
    ("V167C", 0.517),
    ("R8M", -0.722),
    ("G181T", -0.186),
    ("S54P", -0.0299),
    ("N97E", -1.28),
    ("T80W", 0.805),
    ("K182H", -0.354),
    ("L79G", 1.18),
    ("L89K", 1.47),
    ("G108C", 0.472),
    ("E64D", -0.0197),
    ("S159G", -0.767),
    ("L156Q", 0.562),
    ("R58G", 0.743),
    ("I118E", -0.0505),
    ("V93I", -0.612),
    ("A4L", 0.193),
    ("V94A", 0.0839),
    ("G5E", 0.75),
    ("D91Q", -0.476),
    ("C106T", 1.27),
    ("A49S", 1.82),
    ("I123A", -0.0656),
]
